target: ER-α (Homo sapiens, UniProt P03372); construct: endogenous in cells; host or cells: MCF-7; test: ER-α in Cell Western Assay (SP1); assay type: cell-based; details: MCF7; MCF-7 cells, SP1 rabbit monoclonal Ab, 4 or 24 hr post compound addition; read-out: ER In-Cell Western Assay (SP1); Max Response
Sequence (P03372 whole entry): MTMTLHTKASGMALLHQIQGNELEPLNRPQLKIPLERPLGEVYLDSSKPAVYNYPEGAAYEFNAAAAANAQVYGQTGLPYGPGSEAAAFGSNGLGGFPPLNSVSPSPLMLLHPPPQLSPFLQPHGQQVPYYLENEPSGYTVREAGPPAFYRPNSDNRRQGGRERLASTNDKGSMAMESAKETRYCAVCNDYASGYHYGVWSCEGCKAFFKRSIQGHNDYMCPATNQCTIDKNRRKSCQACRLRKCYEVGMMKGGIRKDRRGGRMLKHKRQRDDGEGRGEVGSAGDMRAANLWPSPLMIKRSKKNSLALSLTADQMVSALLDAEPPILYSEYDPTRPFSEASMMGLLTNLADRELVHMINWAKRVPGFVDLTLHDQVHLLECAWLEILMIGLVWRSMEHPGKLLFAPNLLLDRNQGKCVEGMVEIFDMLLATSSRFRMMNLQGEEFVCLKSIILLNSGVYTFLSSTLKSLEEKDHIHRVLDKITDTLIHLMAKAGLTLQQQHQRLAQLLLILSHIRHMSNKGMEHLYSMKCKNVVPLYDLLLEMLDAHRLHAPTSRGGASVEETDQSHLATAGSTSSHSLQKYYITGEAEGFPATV
propertyMeasured: Emax

[in] So what Emax did CC1=C(c2ccc(F)c(O)c2F)C(c2ccc(OC[C@H](C)N3CC[C@@H](C)C3)cc2)Oc2ccc(O)cc21 (stereo partly drawn) get with ER-α (Homo sapiens, UniProt P03372)?
[out] ≥ 85%

* * *

target: ER-α (Homo sapiens, UniProt P03372); construct: endogenous in cells; host or cells: MCF-7; experiment: ER-α in Cell Western Assay (SP1); assay type: cell-based; settings: MCF7; MCF-7 cells, SP1 rabbit monoclonal Ab, 4 or 24 hr post compound addition; read-out: ER In-Cell Western Assay (SP1); Max Response
propertyMeasured: Emax

CC1=C(c2cccc(O)c2)C(c2ccc(OC[C@H](C)N3CCCC3)cc2)Oc2ccc(O)cc21 (stereo partly shown)    60 to 85%
CC1=C(c2ccc(F)cc2)C(c2ccc(OC[C@H](C)N3CCC[C@H]3C)cc2)Oc2ccc(O)cc21 (stereo partly shown)    60 to 85%
CCN(CC)CCOc1ccc(C2Oc3ccc(O)cc3C(C)=C2c2cccc(O)c2)cc1 (stereo not shown)    < 60%
CC1=C(c2ccc(O)cc2F)C(c2ccc(OC[C@H](C)N3CC[C@@H](C)C3)cc2)Oc2ccc(O)cc21 (stereo partly shown)    ≥ 85%
CC1=C(c2cccc(O)c2)C(c2ccc(OC[C@H](C)N3CCCCCC3)cc2)Oc2ccc(O)cc21 (stereo partly shown)    60 to 85%
CC1=C(c2ccc(C(F)(F)F)c(O)c2)C(c2ccc(OC[C@H](C)N3CC[C@@H](C)C3)cc2)Oc2ccc(O)cc21 (stereo partly shown)    60 to 85%

[in] Which Emax value is on record for CC1=C(c2ccc(O)c(C(F)(F)F)c2)C(c2ccc(OC[C@H](C)N3CC[C@@H](C)C3)cc2)Oc2ccc(O)cc21 (stereo partly shown) ?
[out] 60 to 85%
